FYI, the data here is from patent US20070281028A1.

Test: Plasma levels of ibuprofen after embolisation, intra-arterial or intravenous administration
Type: in vivo
Conditions: sheep, after intra-arterial administration (IA) of 50 mg solution in both left and right artery
attributeMeasured: Cmax (ng/mL)
Answers are plain numbers, in ng/mL.

Prompt line: If you can, please state the reported Cmax value of CC(C)Cc1ccc(C(C)C(=O)O)cc1 (stereo not shown) .
Response line: 32000
